Data provenance is paper PMC11822212.

- Test system: UISO cells (VN-MCC)
- experimental-details: qHTS cell viability (CellTiter-Glo, 72 h; primary and follow-up small molecule screen)
- Type: cell-based, human
- condition-label: UISO, 72h, Log (M) -7.72207
observable: Percent viability (%)
Could you give me the number in %? Just the number is fine.

For orientation, consider the following solved cases.
molecule	Percent viability (%)
Cc1cc(Nc2cc(N3CCN(C)CC3)nc(Sc3ccc(NC(=O)C4CC4)cc3)n2)[nH]n1 [Tozasertib, reference compound]	84.6
CCn1cc(-c2ccnc3[nH]c(-c4cccc(CN(C)C)c4)cc23)c(-c2ccc(NC(=O)N(C)C)cc2)n1 [GSK-1070916A, reference compound]	91.6
CCS(=O)(=O)c1cccc(-c2cc(C(=O)NC3CCN(C)CC3)c(C)c3[nH]c4ncc(C)cc4c23)c1 [TAK-901, reference compound]	80.6

Next molecule, Percent viability to be filled in.
Lab note: O=C(Nc1cccc(Cl)c1)Nc1ncc(CCNc2ncnc3ccsc23)s1 [SNS-314, reference compound] gave Percent viability of 86.0
